# TARGET OR SYSTEM: human TRPA1 (Homo sapiens (Human), UniProt O75762)
# Sequence (O75762 whole entry): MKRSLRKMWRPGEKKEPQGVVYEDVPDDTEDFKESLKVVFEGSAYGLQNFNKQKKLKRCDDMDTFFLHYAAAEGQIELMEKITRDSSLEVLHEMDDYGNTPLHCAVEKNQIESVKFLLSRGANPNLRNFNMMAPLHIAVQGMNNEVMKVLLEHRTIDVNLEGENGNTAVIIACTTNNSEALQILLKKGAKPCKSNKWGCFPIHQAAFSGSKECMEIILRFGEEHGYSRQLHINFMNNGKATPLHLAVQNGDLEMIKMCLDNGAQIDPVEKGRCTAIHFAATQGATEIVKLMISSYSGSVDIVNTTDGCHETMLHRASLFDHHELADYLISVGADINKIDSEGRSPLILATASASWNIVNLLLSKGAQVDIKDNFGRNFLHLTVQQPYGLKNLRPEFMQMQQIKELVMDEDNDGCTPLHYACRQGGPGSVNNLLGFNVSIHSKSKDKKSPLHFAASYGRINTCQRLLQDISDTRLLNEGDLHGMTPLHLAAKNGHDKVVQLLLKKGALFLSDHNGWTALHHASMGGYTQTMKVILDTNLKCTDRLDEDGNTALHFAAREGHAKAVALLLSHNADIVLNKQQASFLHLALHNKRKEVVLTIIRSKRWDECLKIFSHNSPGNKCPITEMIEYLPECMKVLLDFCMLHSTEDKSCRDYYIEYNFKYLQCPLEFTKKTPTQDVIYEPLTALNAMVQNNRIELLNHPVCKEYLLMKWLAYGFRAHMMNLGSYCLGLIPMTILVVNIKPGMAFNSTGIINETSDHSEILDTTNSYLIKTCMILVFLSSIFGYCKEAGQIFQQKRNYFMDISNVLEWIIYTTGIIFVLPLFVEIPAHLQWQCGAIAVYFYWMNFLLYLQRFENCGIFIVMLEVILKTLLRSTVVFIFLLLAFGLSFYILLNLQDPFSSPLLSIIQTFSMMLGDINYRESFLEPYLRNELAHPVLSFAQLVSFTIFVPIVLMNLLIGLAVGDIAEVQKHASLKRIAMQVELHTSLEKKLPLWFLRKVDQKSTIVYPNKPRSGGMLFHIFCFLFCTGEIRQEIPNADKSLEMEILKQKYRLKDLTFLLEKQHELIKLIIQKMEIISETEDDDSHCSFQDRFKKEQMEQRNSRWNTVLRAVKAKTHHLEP
# PROTOCOL DESCRIPTION: In vitro inhibition of human TRPA1, whole cell patch configuration
# ASSAY CONDITIONS: current activation 10 μM AITC, tested concentrations 320 pM to 3.2 μM, read-out: hTRPA1 IC50
REPORTED PROPERTY: pIC50
Numbers only, as −log10 of the molar value.

{"columns": ["COMPOUND", "REPORTED PROPERTY", "EXPERIMENTAL RESULT"],
 "data": [
  ["Cc1nc(Cn2c(=O)c3c(ncn3[C@@H](C)C(=O)Nc3cccc(-c4cnc(C(F)(F)F)nc4)n3)n(C)c2=O)no1 [Compound 171]", "pIC50", 7.64]
]}

Exercise: For the compound CCC(=O)Cn1c(=O)c2c(ncn2CC(=O)Nc2csc(-c3cnc(C(F)(F)F)c(C)c3)n2)n(C)c1=O [Compound 249] , give its reported pIC50.
Key: 8.22
